Please provide measured folding stability dG unfold for the entries that follow.
Test: folding stability dG unfold (combined trypsin and chymotrypsin); higher = more stable
Give the value in kcal/mol but do not write kcal/mol after it.

Q: Any idea what its folding stability dG unfold is? The sequence is SAGSEEEKKAIAEELKEKILKERPELQKKEYTVEVEITPLPDDSIRITVTVTLPSGETETREYVYPNKSAGG [r19_194_JUSTAS]
A: 3

Q: Any idea what its folding stability dG unfold is? The sequence is SAGGSAGGSAGGSPLLDFPEPVTTLEETTVTVYFDTNDFTVTLNVTTEVTGDVKRPTVVGSAGGSAGGSAGG [r7_735_JUSTAS]
A: 0.788

Q: Any idea what its folding stability dG unfold is? The sequence is SAGGSAGGSASPQVVEVLSTVPLPGSNIVIEKTSDASGNSYVYDPNTGKWFSPEEAKKLLSSAGGSAGGSAG [r3_206_JUSTAS]
A: 1.5

Q: Any idea what its folding stability dG unfold is? The sequence is SAGGSAGGSPVKDPDGKEVVPIQMTFIIRDPEMGKPVLITITFYIDPAPGGKIKDISIDIFPLSAGGSAGGS [r12_0_TrROS]
A: 4.04

Q: Any idea what its folding stability dG unfold is? The sequence is SAGKETIKIKLFDKNGKLIAEIEIEKLPDGTYKIKIKNKKTGKELEIEVKIEDGKIYIKLPNGAILEIESAG [r5_809_TrROS_Hall]
A: 5.04

Q: Any idea what its folding stability dG unfold is? The sequence is SAGGSAFKGMPPEQVKRVIEIDHPNGKDIYIVRYKGPGHMMIFPPKEGKPIYIPMPLDEIKEFLLSSAGGSA [r15_810_TrROS]
A: 0.548

Q: Any idea what its folding stability dG unfold is? The sequence is SAGGGSMIKKTLEEEPVGESTVSKSTVTLPDGTPVSVTSTTTKVGNTWTTTTTTNYGSSTTTTTTTTSAGGS [r16_476_JUSTAS]
A: 0.156

Q: Any idea what its folding stability dG unfold is? The sequence is SAGGSAGGSGMVEEEEYEDPATGVRTRTTTTYLPNGTVVRTPVVYTPDRPVEEVPTVTPIPSGSAGGSAGGS [r20_88_JUSTAS]
A: 0.958

Q: Any idea what its folding stability dG unfold is? The sequence is SAMKTIEIEIELDELKNLTPEELEEKAKELAEELAKKLAEEKGLEVVSVKVEVVEKDGKLVVKVTVEVKSAG [r14_310_TrROS_Hall]
A: 3.66

Q: Any idea what its folding stability dG unfold is? The sequence is SAMTLTLEFENLKDLTEEEIEEALKEAGLPGVKILGIKKTSEKWTITIAYDSSTPKEKIEAAIKKAVAESAG [r14_657_JUSTAS]
A: 4.56

Q: Any idea what its folding stability dG unfold is? The sequence is SAGGMPPGDPVKVNVQIRIRMRDPNGKKPELTVPIEYNVQSKEDARDAILKIAKELADEYGYEIEVFSAGGS [r8_149_TrROS]
A: 1.31

###

Please provide measured folding stability dG unfold for the entries that follow.
Assay: folding stability dG unfold from trypsin proteolysis; higher = more stable
Give the value in kcal/mol but do not write kcal/mol after it.

Q: Any idea what its folding stability dG unfold is? The sequence is SAGGSAGGSAGGMIIKINGKYYKIKKIEKNPNGKYTITTENGKKYEFKNVKIFSEEELKSAGGSAGGSAGGS [r10_1151_TrROS_Hall]
A: 3.05

Q: Any idea what its folding stability dG unfold is? The sequence is SAGGSAGGSAGGGISEAAASGTPLLVTYTDESGNVTEVVVRPDSPVPLPGVVSAEVRLESAGGSAGGSAGGS [r10_700_JUSTAS]
A: 1.05

Q: Any idea what its folding stability dG unfold is? The sequence is SKKKKPPKKTVTVVVKVKPGEKITLTLKNKDGKEIAKVEFTKLPEDEPLYIATVTLKDGKLTIKVTKLKPSA [r9_238_TrROS_Hall]
A: 2.1

Q: Any idea what its folding stability dG unfold is? The sequence is SATVTLVSVEKEGDKTTVTTRDPSGYTVTVTNPDGSIVLAPIPAEGAEAAIAAIKAAHPGVTVTLEAAASAG [r14_528_JUSTAS]
A: 0.617

Q: Any idea what its folding stability dG unfold is? The sequence is SAGGSAGGMPAEWLDEIEAPPGNYRAELYKTEKEVRIIITLPNGEKLELTFEVKPDEEILVLPGSAGGSAGG [r6_379_TrMRF]
A: 1.89

Q: Any idea what its folding stability dG unfold is? The sequence is SAGGSAGGSAGKRRIYILGMDTVQVAEYLRDTGPDIKVEVFNPGQPMEEFQDNYDIVIFVSAGGSAGGSAGG [r17_225_TrROS]
A: 1.59

Q: Any idea what its folding stability dG unfold is? The sequence is SAGGSAMKVIRIRPDDPRVKELLKKLEDAGYEVRYDEETGELYVTLPDGKVLKFKSLEELKKAGFESAGGSA [r15_94_TrROS_Hall]
A: 1.63

Q: Any idea what its folding stability dG unfold is? The sequence is SAGGSAGGSAGKIYIVKLPNETIEIEFEGTEEEAIDFAIKELEKLFPKPIPKDDIIILGGSAGGSAGGSAGG [r11_1028_TrMRF]
A: 1.76

Q: Any idea what its folding stability dG unfold is? The sequence is SAGGSAGGTISFPNATATITVEENSVTITVTNADGQPTTFTIPLPIPKAKPFTLPDGTKLYLIASAGGSAGG [r6_806_TrMRF]
A: 1.94

Q: Any idea what its folding stability dG unfold is? The sequence is SAGGSPPPLRITYKIRMGGQPFEWTIPIPADDLPPGQQIEIDIRIKKMDPENNRMRMEIDDVEVTPSAGGSA [r2_479_TrROS]
A: -0.209

Q: Any idea what its folding stability dG unfold is? The sequence is SAGPYVMIRIKWPGGEELSIPIPGAKITDVERDGDHITFMFDSPPAAEDIKEEIEDHFPGLKIEIQPIDSAG [r5_453_TrROS]
A: 0.288

Q: Any idea what its folding stability dG unfold is? The sequence is SAGGREITIMIWMPLEDMEEFANEIANALAAEGYKVKDIEIQFKVIPDPENGRPWVMFMIEVEIEPPSAGGS [r8_475_TrROS]
A: 2.96

Q: Any idea what its folding stability dG unfold is? The sequence is SAGGSAGGSEKEIVLVVKSKEDALKAAEELAKALGLEVEVEVIEVKTLENGEKYVVVKITIKDSAGGSAGGS [r12_924_TrROS_Hall]
A: 3.75

Q: Any idea what its folding stability dG unfold is? The sequence is DMEPEPFTIELPNVKIEVQVYRTPNKLSVNAPIEFPNGKNLTISFKYEPTPDGIKLEISIMIPKKAIEKLLS [r1_153_TrROS]
A: 2.33
